ASSAY_EXPLANATION: physchem
RUN_CONDITIONS: saline or isotonic, thermodynamic from solid
VALUE_KIND: solubility at 30 min (µg/mL)
Answer format: numeric, µg/mL implied, no suffix.

## Input Request the reported solubility at 30 min associated with CS(=O)(=O)O.O.O.O=C(Nc1cccc(-n2c(=O)c(Cc3cccnc3)nc3cccnc32)c1)c1cc(Cl)cc(Cl)c1 [Example 2]
## Output 64.3

###

ASSAY_EXPLANATION: physchem
RUN_CONDITIONS: physiological saline solution, saline or isotonic, thermodynamic from solid
VALUE_KIND: solubility at 30 min (µg/mL)
Quick reminder: number only, in µg/mL, skip the unit.

## Input Consider the compound shown here: CS(=O)(=O)O.O=C(Nc1cccc(-n2c(=O)c(Cc3cccnc3)nc3cccnc32)c1)c1cc(Cl)cc(Cl)c1 What is its recorded solubility at 30 min?
## Output 43.9

All figures here come from patent EP1118615A1.
